Each recorded value in this set is attributed to patent US8906925B2.

ASSAYED_TARGET: human dopamine D2L receptor (Homo sapiens, UniProt P14416)
Sequence (P14416 whole entry): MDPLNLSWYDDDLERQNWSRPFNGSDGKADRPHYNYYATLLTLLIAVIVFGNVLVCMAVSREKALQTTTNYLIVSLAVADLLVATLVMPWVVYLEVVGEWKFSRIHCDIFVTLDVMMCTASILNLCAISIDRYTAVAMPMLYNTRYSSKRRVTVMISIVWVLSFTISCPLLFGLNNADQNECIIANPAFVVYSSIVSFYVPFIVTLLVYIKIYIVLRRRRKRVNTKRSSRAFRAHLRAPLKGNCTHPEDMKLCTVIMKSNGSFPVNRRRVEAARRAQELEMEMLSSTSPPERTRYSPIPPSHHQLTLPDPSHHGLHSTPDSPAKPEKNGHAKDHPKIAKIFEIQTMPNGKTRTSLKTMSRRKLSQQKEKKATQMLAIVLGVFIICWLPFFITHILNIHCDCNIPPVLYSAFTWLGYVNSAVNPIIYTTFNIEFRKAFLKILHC
TEST_METHOD_NOTES: Dopamine D2L radioligand binding ([3H]Spiperone)
PROTOCOL_CONDITIONS: percent inhibition of specific binding; compound at 1 μM; read-out: Inhibition of ligand binding, Dopamine D2L
Excerpt: Non-specific binding was estimated in the presence of […] Haloperidol. Receptor proteins were filtered and washed, the filters were then counted to determine [^3H]Spiperone specifically bound. […] Biochemical assay results are presented as the percent inhibition of specific binding in Table 9.
ASSAY_METRIC: inhibition at 1 µM (%)
The reply should be a number in %, with the unit left off.

Example cases with answers are listed next.
# COMPOUND, ASSAY_METRIC, ENDPOINT_RESULT
data = [
    ("CN1CCc2c(c3cc(Cl)ccc3n2/C=C(/c2ccncc2)C(C)(C)C)C1", "inhibition at 1 µM", 23),
    ("COc1ccc(C(C)(O)Cn2c3c(c4cc(C)ccc42)CN(C)CC3)cc1F (stereo not shown)", "inhibition at 1 µM", 32),
    ("CNC(=O)C/C(=C\\n1c2c(c3cc(C)ccc31)CN(C)CC2)c1ccc(F)cc1", "inhibition at 1 µM", 12),
]

Short answer for C/C(=C\n1c2c(c3cc(Cl)ccc31)CN(C)CC2)c1ccccc1F : inhibition at 1 µM was 76

====

Measured inhibition at 1 µM accompanies every entry in the list below.
ASSAYED_TARGET: human recombinant adrenergic α2B receptor (Homo sapiens, UniProt P18089)
Construct: expressed in transfected cells; host or cells: Chinese hamster ovary (CHO-K1) cells
Sequence (P18089 1-450): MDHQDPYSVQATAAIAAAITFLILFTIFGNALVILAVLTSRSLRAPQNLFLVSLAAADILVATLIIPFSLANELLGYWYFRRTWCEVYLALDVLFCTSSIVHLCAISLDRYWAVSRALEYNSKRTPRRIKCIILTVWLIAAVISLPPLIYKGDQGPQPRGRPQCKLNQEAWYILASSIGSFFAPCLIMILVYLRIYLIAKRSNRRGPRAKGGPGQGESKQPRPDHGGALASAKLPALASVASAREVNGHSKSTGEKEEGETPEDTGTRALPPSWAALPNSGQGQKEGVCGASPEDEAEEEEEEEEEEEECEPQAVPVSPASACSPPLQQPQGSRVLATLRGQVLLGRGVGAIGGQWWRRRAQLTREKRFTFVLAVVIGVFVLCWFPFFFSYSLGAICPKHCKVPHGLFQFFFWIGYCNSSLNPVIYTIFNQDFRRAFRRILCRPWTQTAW
TEST_METHOD_NOTES: Adrenergic α2B radioligand binding ([3H]Rauwolscine)
PROTOCOL_CONDITIONS: percent inhibition of specific binding; compound at 1 μM; read-out: Inhibition of ligand binding, Adrenergic α2B

Example cases with answers are listed next.
# COMPOUND, ENDPOINT_RESULT
records = [
    ("C=C(Cn1c2c(c3cc(Cl)ccc31)CN(C)CC2)c1cccnc1", "103%"),
    ("Cc1ccc(C(O)Cn2c3c(c4cc(C)ccc42)CN(C)CC3)cc1 (racemic)", "108%"),
    ("CN1CCc2c(c3cc(Cl)ccc3n2/C=C(/c2ccc(F)cc2)C2CCC2)C1", "89%"),
    ("Cc1ccc(C(C)(O)Cn2c3c(c4cc(Cl)ccc42)CN(C)CC3)cn1 (stereo not drawn)", "106%"),
    ("Cc1ccc2c(c1)c1c(n2CC(O)c2ccncc2)CCN(C)C1 (stereo not drawn)", "105%"),
    ("Cc1ccc2c(c1)c1c(n2CC(C)(O)c2cccnc2)CCN(C)C1 (stereo not drawn)", "96%"),
    ("Cc1ccc2c(c1)c1c(n2/C=C(\\CC(=O)O)c2ccc(F)cc2)CCN(C)C1", "59%"),
    ("CN1CCc2c(c3cc(Cl)ccc3n2C/C=C/c2ccncc2)C1", "68%"),
]

From here, focus on the item given below.
Short answer for Cc1ccc(/C=C/Cn2c3c(c4cc(Cl)ccc42)CN(C)CC3)cn1 : inhibition at 1 µM was 110%
